TARGET OF ASSAY: HIV Env, isolate TRO.11 (HIV)
PROCEDURE TEXT: cell-based or functional assay
MEASURED PARAMETER: IC80 (µg/ml) with constrains (µg/mL)
Reply numerically in µg/mL, unit not repeated.

Here are 3 binders together with their reported answers.
Please look up its IC80 (µg/ml) with constrains: ePGDM9 (antibody, V domains shown) VH: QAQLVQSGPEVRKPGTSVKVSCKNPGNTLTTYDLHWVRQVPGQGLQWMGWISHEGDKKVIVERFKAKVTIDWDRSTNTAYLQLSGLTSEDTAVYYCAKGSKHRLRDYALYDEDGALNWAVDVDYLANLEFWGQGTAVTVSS VL: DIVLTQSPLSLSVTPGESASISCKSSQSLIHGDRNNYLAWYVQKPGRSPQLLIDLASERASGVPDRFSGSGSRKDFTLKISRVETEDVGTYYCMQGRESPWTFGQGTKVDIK 0.652

Moving on to the next binder: ePGDM5 (antibody, V domains shown) VH: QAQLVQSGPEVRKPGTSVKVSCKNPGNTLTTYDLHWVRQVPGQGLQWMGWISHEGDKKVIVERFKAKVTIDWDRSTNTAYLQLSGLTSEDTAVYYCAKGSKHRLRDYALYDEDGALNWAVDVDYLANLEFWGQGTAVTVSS VL: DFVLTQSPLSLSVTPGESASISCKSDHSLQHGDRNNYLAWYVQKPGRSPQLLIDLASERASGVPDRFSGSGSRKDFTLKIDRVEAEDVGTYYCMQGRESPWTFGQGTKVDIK 1.26

Same lookup for PGDM1400 (antibody, V domains shown) VH: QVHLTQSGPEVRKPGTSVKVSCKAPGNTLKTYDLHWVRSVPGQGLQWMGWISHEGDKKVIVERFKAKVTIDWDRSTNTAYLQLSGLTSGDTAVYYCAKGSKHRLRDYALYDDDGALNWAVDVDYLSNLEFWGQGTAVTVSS VL: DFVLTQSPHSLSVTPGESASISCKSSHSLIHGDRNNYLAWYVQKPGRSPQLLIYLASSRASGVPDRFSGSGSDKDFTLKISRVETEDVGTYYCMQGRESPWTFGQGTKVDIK , please. 0.823

Now for the binder whose IC80 (µg/ml) with constrains we want.
For the binder shown here, ePGDM13 (antibody, V domains shown) VH: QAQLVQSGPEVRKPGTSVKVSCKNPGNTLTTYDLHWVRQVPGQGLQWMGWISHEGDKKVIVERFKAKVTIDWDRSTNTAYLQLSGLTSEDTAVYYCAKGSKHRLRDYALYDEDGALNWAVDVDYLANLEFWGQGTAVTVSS VL: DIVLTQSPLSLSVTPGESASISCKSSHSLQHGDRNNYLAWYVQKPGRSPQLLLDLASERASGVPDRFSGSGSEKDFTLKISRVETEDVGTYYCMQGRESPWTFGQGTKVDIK , give the reported IC80 (µg/ml) with constrains. 1.41

Cited source: patent US20230134571A1
